All figures here come from paper PMC7445743.

Each record here notes measured DAPK3 Tm.
Target: DAPK3 (Homo sapiens)
Sequence (O43293 whole entry): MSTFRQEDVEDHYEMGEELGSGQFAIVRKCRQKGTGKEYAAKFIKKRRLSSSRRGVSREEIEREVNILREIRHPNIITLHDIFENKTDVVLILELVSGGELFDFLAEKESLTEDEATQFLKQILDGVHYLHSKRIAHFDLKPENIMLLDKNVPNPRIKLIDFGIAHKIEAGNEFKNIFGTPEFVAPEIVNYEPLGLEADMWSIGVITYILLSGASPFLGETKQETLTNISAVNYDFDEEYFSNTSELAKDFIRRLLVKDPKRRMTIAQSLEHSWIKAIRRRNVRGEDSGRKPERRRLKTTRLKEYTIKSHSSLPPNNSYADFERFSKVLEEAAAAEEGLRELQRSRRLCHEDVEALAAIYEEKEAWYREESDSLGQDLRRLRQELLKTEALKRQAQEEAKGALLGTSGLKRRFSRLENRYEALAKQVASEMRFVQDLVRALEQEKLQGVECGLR
Conditions: supplement CSV

Worked examples, 5 compounds total:
CC(C)(C)c1cccc(Nc2nc(N3CCC[C@H](N)C3)ncc2C(N)=O)c1 | 5.43 0C
CC(C)(C#N)c1cccc(Nc2nc(N3CCC[C@H](N)C3)ncc2C(N)=O)c1 | 6.82 0C
NC(=O)c1cnc(N2CCC[C@H](N)C2)nc1Nc1cccc(-c2ccccc2)c1 | 8.03 0C
CC(C)c1cc(Nc2nc(N3CCC[C@H](N)C3)ncc2C(N)=O)cc(C(C)C)c1 | 8.08 0C
NC(=O)c1cnc(N2CCC[C@H](N)C2)nc1Nc1cc(C(F)(F)F)cc(C(F)(F)F)c1 | 8.72 0C

Request: # returns recorded DAPK3 Tm (system: DAPK3 (Homo sapiens)) for CC(C)(C)c1cc(Nc2nc(N3CCC[C@H](N)C3)ncc2C(N)=O)cc(C(C)(C)C)c1
Response: 4.82 0C

Request: Can you handle NCCNc1ncc(C(N)=O)c(Nc2cccc(C(F)(F)F)c2)n1 [Compound 1, reference compound] next?
Response: 4.05 0C

Request: Now the compound CS(=O)(=O)c1cccc(Nc2nc(N3CCC[C@H](N)C3)ncc2C(N)=O)c1
Response: 6.85 0C

----------
Molecular target: UniProt O15075
Sequence (O15075 whole entry, species assumed): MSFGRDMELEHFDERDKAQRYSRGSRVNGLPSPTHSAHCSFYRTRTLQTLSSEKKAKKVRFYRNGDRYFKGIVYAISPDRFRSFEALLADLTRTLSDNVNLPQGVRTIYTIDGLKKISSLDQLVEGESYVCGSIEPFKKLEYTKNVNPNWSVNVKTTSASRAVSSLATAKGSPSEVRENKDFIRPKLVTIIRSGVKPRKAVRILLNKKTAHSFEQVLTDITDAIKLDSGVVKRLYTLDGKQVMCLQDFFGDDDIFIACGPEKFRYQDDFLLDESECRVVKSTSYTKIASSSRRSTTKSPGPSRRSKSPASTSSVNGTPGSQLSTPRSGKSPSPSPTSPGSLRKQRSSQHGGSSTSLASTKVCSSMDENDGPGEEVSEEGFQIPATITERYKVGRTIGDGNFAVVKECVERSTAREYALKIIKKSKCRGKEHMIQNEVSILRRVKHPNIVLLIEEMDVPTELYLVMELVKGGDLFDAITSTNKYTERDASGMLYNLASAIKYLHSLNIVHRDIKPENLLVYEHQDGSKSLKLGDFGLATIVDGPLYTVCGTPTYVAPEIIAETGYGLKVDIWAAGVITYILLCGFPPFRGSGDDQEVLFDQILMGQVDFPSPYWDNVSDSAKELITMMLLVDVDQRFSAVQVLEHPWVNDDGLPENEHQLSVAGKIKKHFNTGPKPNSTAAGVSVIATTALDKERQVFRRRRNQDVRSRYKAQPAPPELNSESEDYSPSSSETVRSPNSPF
Conditions: supplement CSV
resultType: DCAMKL1 Tm

# example entries with known answers
CC(C)c1cc(Nc2nc(N3CCC[C@H](N)C3)ncc2C(N)=O)cc(C(C)C)c1 | 1.96 0C
NC(=O)c1cnc(N2CCC[C@H](N)C2)nc1Nc1cc(C(F)(F)F)cc(C(F)(F)F)c1 | 1.22 0C
CC(C)(C)c1cccc(Nc2nc(N3CCC[C@H](N)C3)ncc2C(N)=O)c1 | 0.3 0C
CS(=O)(=O)c1cccc(Nc2nc(N3CCC[C@H](N)C3)ncc2C(N)=O)c1 | -0.09 0C
NCCNc1ncc(C(N)=O)c(Nc2cccc(C(F)(F)F)c2)n1 [Compound 1, reference compound] | 0.11 0C
NC(=O)c1cnc(N2CCC[C@H](N)C2)nc1Nc1cccc(-c2ccccc2)c1 | 1.64 0C
CC(C)(C#N)c1cccc(Nc2nc(N3CCC[C@H](N)C3)ncc2C(N)=O)c1 | 0.32 0C

Now consider the entry below.
Request: // lookup DCAMKL1 Tm for CC(C)(C)c1cc(Nc2nc(N3CCC[C@H](N)C3)ncc2C(N)=O)cc(C(C)(C)C)c1
Response: 1.34 0C

----------
Target: GSK3β (Homo sapiens, UniProt P49841)
Sequence (P49841 whole entry, species assumed): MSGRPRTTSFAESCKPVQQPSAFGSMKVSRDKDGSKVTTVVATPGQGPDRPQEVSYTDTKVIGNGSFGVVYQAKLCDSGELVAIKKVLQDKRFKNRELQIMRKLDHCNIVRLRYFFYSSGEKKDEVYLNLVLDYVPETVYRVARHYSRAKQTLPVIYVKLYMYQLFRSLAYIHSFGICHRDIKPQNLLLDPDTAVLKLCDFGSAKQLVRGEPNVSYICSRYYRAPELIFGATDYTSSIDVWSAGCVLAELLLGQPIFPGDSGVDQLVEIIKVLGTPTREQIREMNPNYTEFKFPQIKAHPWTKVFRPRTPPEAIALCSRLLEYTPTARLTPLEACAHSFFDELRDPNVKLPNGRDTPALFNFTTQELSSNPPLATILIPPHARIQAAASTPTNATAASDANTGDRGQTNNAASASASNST
Conditions: supplement CSV
Reported GSK3B Tm values for the following compounds.

NCCNc1ncc(C(N)=O)c(Nc2cccc(C(F)(F)F)c2)n1 [Compound 1, reference compound] | 3.4 0C
NC(=O)c1cnc(N2CCC[C@H](N)C2)nc1Nc1cc(C(F)(F)F)cc(C(F)(F)F)c1 | -0.47 0C

Request: What value of GSK3B Tm has been recorded for this entry: NC(=O)c1cnc(N2CCC[C@H](N)C2)nc1Nc1cccc(-c2ccccc2)c1
Response: 0.32 0C

Request: Moving on to the next compound: CC(C)(C)c1cccc(Nc2nc(N3CCC[C@H](N)C3)ncc2C(N)=O)c1
Response: 0.67 0C

Request: Also CC(C)(C#N)c1cccc(Nc2nc(N3CCC[C@H](N)C3)ncc2C(N)=O)c1 , if possible.
Response: 0.46 0C

Request: Please answer likewise for CC(C)c1cc(Nc2nc(N3CCC[C@H](N)C3)ncc2C(N)=O)cc(C(C)C)c1
Response: -0.2 0C

Request: What do you get for CC(C)(C)c1cc(Nc2nc(N3CCC[C@H](N)C3)ncc2C(N)=O)cc(C(C)(C)C)c1 ?
Response: -0.63 0C

Request: Try the compound CS(=O)(=O)c1cccc(Nc2nc(N3CCC[C@H](N)C3)ncc2C(N)=O)c1
Response: 1.4 0C
